Below, each entry is listed alongside its reported FLD area (EV + dye).
- Tested on: platelet-derived EVs
- methodNotes: Labelling of extracellular vesicles with dyes (Superose 6 HPLC, UV and FLD detection)
- experimentalContext: EV + 2 μM dye, 1 hr 37° C.; void peak area, 562 nm/583 nm (Ex/Em)
readoutLabel: FLD area (EV + dye)

compound | readoutLabel | measuredResult
CCCCCCCCCCCCCCN(CCCCC)C(=O)c1ccccc1-c1c2ccc(=[N+](CC)CC)cc-2oc2cc(N(CC)CC)ccc12.[Cl-] [Dye 5, Rhodamine B N-pentyltetradecanamide] | FLD area (EV + dye) | 2405326
CCCCCCCCCCCCCCCCCCN(CCCCC)C(=O)c1ccccc1-c1c2ccc(=[N+](CC)CC)cc-2oc2cc(N(CC)CC)ccc12.[Cl-] [Dye 6, Rhodamine B N-pentyloctadecanamide] | FLD area (EV + dye) | 4247970
CCCCCCCCCCCCCCCCN(C)C(=O)c1ccccc1-c1c2ccc(=[N+](CC)CC)cc-2oc2cc(N(CC)CC)ccc12.[Cl-] [Dye 1, Rhodamine B N-methylhexadecylamide] | FLD area (EV + dye) | 2281007
CCCCCCCCCCCCCCCCCCN(CCOC)C(=O)c1ccccc1-c1c2ccc(=[N+](CC)CC)cc-2oc2cc(N(CC)CC)ccc12.[Cl-] [Dye 8] | FLD area (EV + dye) | 3422473
CCCCCCCCCCCCCCCCN(CCOC)C(=O)c1ccccc1-c1c2ccc(=[N+](CC)CC)cc-2oc2cc(N(CC)CC)ccc12.[Cl-] [Dye 7] | FLD area (EV + dye) | 1456410

----------
Below, each entry is listed alongside its reported Area FLD/Area UV (EV + dye).
- Tested on: platelet-derived EVs
- methodNotes: Labelling of extracellular vesicles with dyes (Superose 6 HPLC, UV and FLD detection)
- experimentalContext: EV + 2 μM dye; higher ratio = greater incorporation

compound | Area FLD/Area UV (EV + dye)
CCCCCCCCCCCCCCCCN(CCOC)C(=O)c1ccccc1-c1c2ccc(=[N+](CC)CC)cc-2oc2cc(N(CC)CC)ccc12.[Cl-] | 1.38
CCCCCCCCCCCCCCCCCCCCN(CCOC)C(=O)c1ccccc1-c1c2ccc(=[N+](CC)CC)cc-2oc2cc(N(CC)CC)ccc12.[Cl-] | 2.55
CCCCCCCCCCCCCCCCCCN(CCCCC)C(=O)c1ccccc1-c1c2ccc(=[N+](CC)CC)cc-2oc2cc(N(CC)CC)ccc12.[Cl-] [Dye 6, Rhodamine B N-pentyloctadecanamide] | 2.36
CCCCCCCCCCCCCCCCCCN(C)C(=O)c1ccccc1-c1c2ccc(=[N+](CC)CC)cc-2oc2cc(N(CC)CC)ccc12.[Cl-] [Dye 2, Rhodamine B N-methyloctadecylamide] | 4.50
CCCCCCCCCCCCCCCCN(C)C(=O)c1ccccc1-c1c2ccc(=[N+](CC)CC)cc-2oc2cc(N(CC)CC)ccc12.[Cl-] [Dye 1, Rhodamine B N-methylhexadecylamide] | 2.09
CCCCCCCCCCCCCCCCCCN(CCOC)C(=O)c1ccccc1-c1c2ccc(=[N+](CC)CC)cc-2oc2cc(N(CC)CC)ccc12.[Cl-] | 2.92
CCCCCCCCCCCCCCCCCCCCCCN(C)C(=O)c1ccccc1-c1c2ccc(=[N+](CC)CC)cc-2oc2cc(N(CC)CC)ccc12.[Cl-] | 2.08
CCCCCCCCCCCCCCCCCCCCN(C)C(=O)c1ccccc1-c1c2ccc(=[N+](CC)CC)cc-2oc2cc(N(CC)CC)ccc12.[Cl-] [Dye 3, Rhodamine B N-methylicosaneamide] | 3.63
CCCCCCCCCCCCCCN(CCCCC)C(=O)c1ccccc1-c1c2ccc(=[N+](CC)CC)cc-2oc2cc(N(CC)CC)ccc12.[Cl-] [Dye 5, Rhodamine B N-pentyltetradecanamide] | 1.25
CCCCCCCCCCCCCCCCCCN(CCO)C(=O)c1ccccc1-c1c2ccc(=[N+](CC)CC)cc-2oc2cc(N(CC)CC)ccc12.[Cl-] | 3.33

Values were extracted from patent US20240093034A1.
